Consider the following pKi data for Coagulation factor XI (Homo sapiens), collected from several reports.
pKi: −log10 of the molar value.
reportedEndpoint: pKi

Example results:
> print(dat)
                                   molecule                            testsystem  resultnumber
1  COC(=O)Nc1ccc2c(c1)N[C@@H](C(=O)NCc1ccccn1)CCCC[C@H](NC(=O)/C=C/c1cc(Cl)ccc1-n1cnnn1)c1cncc-2c1  Coagulation factor XI (Homo sapiens)          7.68
2  COC(=O)Nc1ccc2c(c1)NC(=O)CC1CC1CC(c1ccc(-c3c(F)cccc3C(F)F)c[n+]1[O-])c1nc-2c(C)[nH]1 (racemic)  Coagulation factor XI (Homo sapiens)          8.81
3  O=C1CCCC[C@H](c2ccc(-c3c(F)ccc(Cl)c3F)c[n+]2[O-])c2cccc(c2)-c2ccc(Nc3ncccn3)cc2N1  Coagulation factor XI (Homo sapiens)          8.68

(I) O=C(Nc1nnc(C2CCC2)[nH]1)[C@H](Cc1ccccc1)n1cnc(-c2cc(Cl)ccc2-n2cc(Cl)nn2)cc1=O
(II) C[C@@H]1CCC[C@H](n2cnc(-c3cc(Cl)ccc3-n3cc(C(F)(F)F)nn3)cc2=O)c2cccc(c2)C[C@@H](CC#N)NC1=O
(III) COC(=O)Nc1ccc2c(c1)NC(=O)CC/C=C/C[C@H](NC(=O)/C=C/c1cccc(Cl)c1)c1nc-2c(Cl)[nH]1
Exam item: Arrange these 3 molecules in increasing order of pKi. Returns: the labels listed in the requested order.
Marked response: I, III, II
(I: 6.59, III: 8.05, II: 8.30)

====

pKi: −log10 of the molar value.
Consider the following pKi data for Coagulation factor XI (Homo sapiens), collected from several reports.
reportedEndpoint: pKi

Example results:
> print(dat)
                                   molecule                            testsystem  resultnumber
1  COC(=O)Nc1ccc2c(c1)NC(=O)CCCCC(c1ccc(-c3cc(Cl)ccc3-n3cnnn3)cn1)c1cc-2c(F)cn1 (stereo not shown)  Coagulation factor XI (Homo sapiens)          8.85
2  COC(=O)Nc1ccc(-c2cc(C(C)NC(=O)/C=C/c3cc(Cl)ccc3-n3cnnn3)c(Cl)nn2)cc1 (racemic)  Coagulation factor XI (Homo sapiens)          7.28
3  NCc1ccc2c(c1)CCN([C@@H](Cc1ccccc1)C(=O)Nc1ccc(-c3cc[nH]n3)cc1)C2=O  Coagulation factor XI (Homo sapiens)          7.03
4  CN1CCC(CNC(=O)[C@H](Cc2ccccc2)n2cnc(-c3cc(Cl)ccc3-n3cc(Cl)nn3)cc2=O)C1 (mixture of isomers)  Coagulation factor XI (Homo sapiens)          5.13
5  N=C(N)c1ccc(CNC(=O)[C@H](CCC(=O)OCc2ccccc2)NC(=O)[C@@H](CCc2ccncc2)NS(=O)(=O)Cc2ccccc2)cc1  Coagulation factor XI (Homo sapiens)          7.51

(I) CC(=O)N1CCCC2NC(=O)[C@H](C)CCC[C@H](n3cnc(-c4c(-n5cc(Cl)nn5)ccc(Cl)c4F)cc3=O)c3cccc(c3)C21 (single isomer, unassigned)
(II) COC(=O)Nc1ccc2c(c1)NC(=O)[C@H](C)CCC[C@@H](c1ccc(-c3c(F)cccc3F)c[n+]1[O-])c1nc-2c(C)[nH]1 (single isomer, unassigned)
Exam item: Between I and II , whose measured pKi reads higher? Select an item and report its label.
Marked response: II
(II: 7.73, I: 6.92)

(P) COC(=O)Nc1ccc2c(c1)NC(C(=O)O)CCCCC(C(=O)N1CCC[C@@]3(C1)OC(=O)Nc1ccc(Cl)c(F)c13)c1nc-2c[nH]1 (stereo partly shown)
(Q) N=C(N)c1ccc(CNC(=O)[C@@H]2CCCN2C(=O)[C@@H](CC2CCCCC2)NS(=O)(=O)Cc2cccc(CNC(=O)CCCC(=O)O)c2)cc1
(R) N=C(N)c1ccc(CNC(=O)[C@H](CCC2CCNCC2)NC(=O)[C@@H](CCc2ccncc2)NS(=O)(=O)Cc2ccccc2)cc1
Exam item: Arrange these 3 molecules in increasing order of pKi. Returns: the labels listed in the requested order.
Marked response: R, P, Q
